# target_desc: T1, PREX2_2, Q70Z35
# T1 sequence (Q70Z35 672-764, limits assumed, looked up): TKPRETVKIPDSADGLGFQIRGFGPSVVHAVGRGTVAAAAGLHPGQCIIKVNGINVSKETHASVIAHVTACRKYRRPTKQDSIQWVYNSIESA
# assay_protocol: holdup assay
# Parameters: key: below the threshold = too weak to quantify, mostly under pKd 3.1 to 4
# experimental_parameters: plain residues with an end cap or a label only (N-terminal biotin on a linker: ttds)
measured_metric: pKd

{"binder": "SGSRPSATVV [HPV73-E6, Q82005]", "experimental_value": "below the threshold"}
{"binder": "QRQARSETLV [HPV59-E6, Q81964]", "experimental_value": "below the threshold"}
{"binder": "RPLPRKVSQL [DOCK4, Q8N1I0]", "experimental_value": "below the threshold"}
{"binder": "SSLQSLETSV [ATP2B4, P23634]", "experimental_value": "below the threshold"}

Data request: Form field: reported pKd of RHTTSTETAV [HPV30-E6, P36809]
Data returned: below the threshold

Data request: Form field: reported pKd of RLPKIKETTV [FRMPD4, Q14CM0]
Data returned: 4.25

Data request: Form field: reported pKd of SKPTRRETEV [HPV35-E6, P27228]
Data returned: 3.62

Data request: Form field: reported pKd of RLQRRRETQV [HPV18-E6, P06463]
Data returned: 4
